- SYSTEM: T1, human TL1A extracellular domain with N-terminal HIS and FLAG tag (human, UniProt O95150 72-251)
- T1 construct: the whole entry is named
- T1 sequence: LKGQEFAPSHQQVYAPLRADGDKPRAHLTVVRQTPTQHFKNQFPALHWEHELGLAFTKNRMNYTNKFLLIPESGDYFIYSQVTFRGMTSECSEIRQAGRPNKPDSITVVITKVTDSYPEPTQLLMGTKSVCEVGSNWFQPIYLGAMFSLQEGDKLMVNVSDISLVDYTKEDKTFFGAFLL
- ASSAY DETAILS: SPR Run 5, Ab from supernatant captured on Protein A, TL1A 5 ug/mL, timepoint 220
binders and their reported TL1A Binding Level (Late)
Please respond with the number in RU and leave the unit unwritten.

These recorded examples may help you get a feel for the data.
320-393 (antibody, human IgG1, name in Kabat numbering, V domains shown, human IgG1, lambda) VH: QVQLVQSGAEVKKPGASVKVSCKASKYTFTSYDINWVRQAPGQGLEWMGWLNPNSGNTGYAQKFQGRVTMTADRSTSTAYMELSSLRSEDTAVYYCAREVPETAAFEYWGQGTLVTVSS VL: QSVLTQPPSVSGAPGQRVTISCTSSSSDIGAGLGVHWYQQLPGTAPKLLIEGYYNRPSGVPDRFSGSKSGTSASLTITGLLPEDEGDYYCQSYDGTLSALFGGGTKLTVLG = 11
320-389 (antibody, human IgG1, name in Kabat numbering, V domains shown, human IgG1, lambda) VH: QVQLVQSGAEVKKPGASVKVSCKASSYTFTSYDINWVRQAPGQGLEWMGWLNPNSGNTGYAQKFQGRVTMTADRSTSTAYMELSSLRSEDTAVYYCAREVPETAAFEYWGQGTLVTVSS VL: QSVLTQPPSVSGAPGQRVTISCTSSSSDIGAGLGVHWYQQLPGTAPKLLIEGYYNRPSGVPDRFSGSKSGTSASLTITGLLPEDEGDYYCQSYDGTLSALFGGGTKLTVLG = 11
320-420 (antibody, human IgG1, name in Kabat numbering, V domains shown, human IgG1, lambda) VH: QVQLVQSGAEVKKPGASVKVSCKASGYTWTSYDINWVRQAPGQGLEWMGWLNPNSGNTGYAQKFQGRVTMTADRSTSTAYMELSSLRSEDTAVYYCAREVPETAAFEYWGQGTLVTVSS VL: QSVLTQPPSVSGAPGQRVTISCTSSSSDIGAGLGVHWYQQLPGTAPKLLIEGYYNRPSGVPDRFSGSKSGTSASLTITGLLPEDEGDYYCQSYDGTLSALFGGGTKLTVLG = 10

Enquiry: Using the record for 320-415 (antibody, human IgG1, name in Kabat numbering, V domains shown, human IgG1, lambda) VH: QVQLVQSGAEVKKPGASVKVSCKASGYTQTSYDINWVRQAPGQGLEWMGWLNPNSGNTGYAQKFQGRVTMTADRSTSTAYMELSSLRSEDTAVYYCAREVPETAAFEYWGQGTLVTVSS VL: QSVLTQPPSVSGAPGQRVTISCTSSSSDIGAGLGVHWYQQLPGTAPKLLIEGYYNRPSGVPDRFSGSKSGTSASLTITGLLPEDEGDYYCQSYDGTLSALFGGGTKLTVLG , state its measured TL1A Binding Level (Late).
Return: 4

Enquiry: Identify measured TL1A Binding Level (Late) associated with 320-413 (antibody, human IgG1, name in Kabat numbering, V domains shown, human IgG1, lambda) VH: QVQLVQSGAEVKKPGASVKVSCKASGYTATSYDINWVRQAPGQGLEWMGWLNPNSGNTGYAQKFQGRVTMTADRSTSTAYMELSSLRSEDTAVYYCAREVPETAAFEYWGQGTLVTVSS VL: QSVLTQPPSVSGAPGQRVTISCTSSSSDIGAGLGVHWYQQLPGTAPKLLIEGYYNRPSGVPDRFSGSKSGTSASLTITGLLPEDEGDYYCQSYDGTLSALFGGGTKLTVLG
Return: 8

Enquiry: Provide measured TL1A Binding Level (Late) value, entry: 320-410 (antibody, human IgG1, name in Kabat numbering, V domains shown, human IgG1, lambda) VH: QVQLVQSGAEVKKPGASVKVSCKASGYLFTSYDINWVRQAPGQGLEWMGWLNPNSGNTGYAQKFQGRVTMTADRSTSTAYMELSSLRSEDTAVYYCAREVPETAAFEYWGQGTLVTVSS VL: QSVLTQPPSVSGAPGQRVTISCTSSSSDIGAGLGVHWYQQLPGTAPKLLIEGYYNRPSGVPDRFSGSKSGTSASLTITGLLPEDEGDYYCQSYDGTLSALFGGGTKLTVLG
Return: 10

Enquiry: Give recorded TL1A Binding Level (Late). 320-391 (antibody, human IgG1, name in Kabat numbering, V domains shown, human IgG1, lambda) VH: QVQLVQSGAEVKKPGASVKVSCKASDYTFTSYDINWVRQAPGQGLEWMGWLNPNSGNTGYAQKFQGRVTMTADRSTSTAYMELSSLRSEDTAVYYCAREVPETAAFEYWGQGTLVTVSS VL: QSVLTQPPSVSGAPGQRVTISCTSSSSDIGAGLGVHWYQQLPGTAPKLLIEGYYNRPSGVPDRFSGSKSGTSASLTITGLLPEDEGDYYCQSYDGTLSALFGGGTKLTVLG
Return: 13
